meta.source: patent US20120157401A1

- Tested on: soluble VEGF121 and VEGF165 isoforms
- test.protocol: Inhibition of soluble VEGF production in human tumor cell lines (ELISA, EC50)
- Format: cell-based
- condition.summary: Pancreas, Capan-1, hypoxic (1% oxygen), 48 hours
endpoint.name: EC50 (nM)
Reply numerically in nM, unit not repeated.

// returns reported EC50 for input COc1ccc(C2c3[nH]c4ccc(Cl)cc4c3CCN2C(=O)Oc2ccc(Cl)cc2)cc1 (racemic)
5

* * *

- System: soluble VEGF121 and VEGF165 isoforms
- test.protocol: Inhibition of soluble VEGF production in human tumor cell lines (ELISA, EC50)
- Assay type: cell-based
- condition.summary: Cervical, HeLa, hypoxic (1% oxygen), 48 hours
endpoint.name: EC50 (nM)
Reply numerically in nM, unit not repeated.

// returns reported EC50 for input COc1ccc(C2c3[nH]c4ccc(Cl)cc4c3CCN2C(=O)Oc2ccc(Cl)cc2)cc1 (racemic) [Compound #10]
2

* * *

- Tested on: hypoxia-inducible endogenous VEGF expression
- test.protocol: Hypoxia-inducible endogenous VEGF expression ELISA in HeLa cells, dose-response EC50 (Table 3)
- Format: cell-based, human
- condition.summary: Homo sapiens; HeLa cells, hypoxic conditions (1% O2), VEGF ELISA of conditioned media; read-out: ELISA EC50
Field: EC50. Provide a value for each of the compounds that follow.

Reported EC50 for hypoxia-inducible endogenous VEGF expression, given O=C(Oc1ccc(Cl)cc1)N1CCc2c([nH]c3ccc(Cl)cc23)C1c1ccc(OC2CCOCC2)cc1 (stereo not shown) ?
< 8 nM

Reported EC50 for hypoxia-inducible endogenous VEGF expression, given COC(=O)NCC(O)CCOc1ccc([C@H]2c3[nH]c4ccc(Cl)cc4c3CCN2C(=O)Oc2ccc(Cl)cc2)cc1 (stereo partly shown) ?
< 8 nM

Reported EC50 for hypoxia-inducible endogenous VEGF expression, given `O=C(Oc1ccc(Cl)cc1)N1CCc2c([nH]c3ccc(Cl)cc23)[C@H]1c1ccc(OCC[C@H](O)CO)cc1` ?
> 1000 nM

Reported EC50 for hypoxia-inducible endogenous VEGF expression, given N#CCOc1ccc(C2c3[nH]c4ccc(Cl)cc4c3CCN2C(=O)Oc2ccccc2Cl)cc1 (stereo not shown) ?
40 to 200 nM

Reported EC50 for hypoxia-inducible endogenous VEGF expression, given O=C(Oc1ccc(Cl)cc1)N1CCc2c([nH]c3ccc(Br)cc23)C1c1ccc(OCC[C@H](O)CO)cc1 (stereo partly shown) ?
< 8 nM

Reported EC50 for hypoxia-inducible endogenous VEGF expression, given `O=C(Oc1ccc(Cl)cc1)N1CCc2c([nH]c3ccc(Cl)cc23)[C@@H]1c1ccc(Oc2cnccn2)cc1` ?
< 8 nM

Reported EC50 for hypoxia-inducible endogenous VEGF expression, given O=C(Oc1ccc(Cl)cc1)N1CCc2c([nH]c3ccc(Cl)cc23)C1c1ccc(OC2COC(c3ccccc3)OC2)cc1 (stereo not shown) ?
< 8 nM

* * *

- test.protocol: Phase 1 multiple-dose study in healthy volunteers: pharmacokinetics (Table 28)
- Type: in vivo, human
- condition.summary: both, human, plasma, oral; Stage 1, 1.2 mg/kg BID, Day 1, mean; read-out: Tmax (after PM dose)
endpoint.name: Tmax (h)
Reply numerically in h, unit not repeated.

// returns reported Tmax for input COc1ccc(C2c3[nH]c4ccc(Cl)cc4c3CCN2C(=O)Oc2ccc(Cl)cc2)cc1 (racemic)
3

* * *

- Tested on: soluble VEGF121 and VEGF165 isoforms
- test.protocol: Inhibition of soluble VEGF production in human tumor cell lines (ELISA, EC50)
- Assay type: cell-based
- condition.summary: SK-OV-3, Ovarian, SKOV3, hypoxic (1% oxygen), 48 hours
endpoint.name: EC50
Please answer in the form of a number followed by its unit of measurement.

// returns reported EC50 for input COc1ccc(C2c3[nH]c4ccc(Cl)cc4c3CCN2C(=O)Oc2ccc(Cl)cc2)cc1 (racemic)
10 nM
